Provenance of the data: a melting point compilation (Tetko et al.; mined from patent text by program, amines drawn as free bases though some values may be those of a salt)

metric-name: melting point

Recorded melting point, per entry:
INSERT INTO assay_data (compound, value_observed) VALUES
  ('Nc1nc(O)c2cc(CN(Cc3c[nH]c(=O)[nH]c3=O)c3ccc(C(=O)N[C@@H](CCC(=O)O)C(=O)O)cc3)ccc2n1', '250 to 255 °C'),
  ('Cc1ccc(N2N=C3c4cc(C)sc4CCCC3CC2=O)cc1 (stereo not given)', '117 to 119 °C'),
  ('COc1c(N2CC[C@@H](C(C)(C)N)C2)c(F)cc2c(=O)c(C(=O)O)cn(C3CC3)c12', '225 to 227 °C'),
  ('O=C(O)[C@H](COCc1ccccc1)NC1(c2ccccc2)c2ccccc2-c2ccccc21', '137 to 138 °C'),
  ('OCCOCn1c(Cl)nc2c(Cl)c(Cl)c(Cl)c(Cl)c21', '168 to 170 °C');

Batch: melting point for all items listed.
1. CC(C)(C)NC(=O)c1ccccc1O
2. CCN(CC1CCCC1)c1nc2c(cc1CN(Cc1cc(C(F)(F)F)cc(C(F)(F)F)c1)C(N)=O)c(C)nn2C
3. Nc1ccc2nc3c(=O)[nH][nH]c(=O)c3c(O)c2c1

A.
78 to 79.5 °C
139 °C
219 to 221 °C
